# Tested on: mesothelioma (H226) cancer cell line
# protocolDescription: 72 hr ATP luminescence cell proliferation inhibition assay, H226
# Assay type: cell-based, human
# reportedConditions: H226 cells
Recorded IC50 values for a group of molecules are listed next.
Return type: number; implicit unit nM.

Solved entries (count: 3):
>>> print(df.to_string())
                                   compound  unitspec  recordedmeasurement
0  COc1cc2c(cc1OCCCC(=O)Nc1cc(C(=O)Nc3ccc(OCc4ccccc4)cc3)n(C)c1)N=C[C@@H]1Cc3ccccc3CN1C2=O        nM                 0.11
1  COc1cc2c(cc1OCCCC(=O)Nc1cn(C)c(C(=O)Nc3ccccc3)n1)N=C[C@@H]1Cc3ccccc3CN1C2=O        nM                 0.18
2  COc1cc2c(cc1OCCCC(=O)Nc1cc(C(=O)Nc3ccc(-n4cnc(C(F)F)n4)c(OC)c3)n(C)c1)N=C[C@@H]1Cc3ccccc3CN1C2=O        nM                0.018

Name the recorded IC50 for "COC(=O)c1cc(NC(=O)CCCOc2cc3c(cc2OC)C(=O)N2Cc4ccccc4C[C@H]2C=N3)cn1C" .
1.1

----------
# Test system: colon cancer (HCT116) cell line
# protocolDescription: 72 hr ATP luminescence cell proliferation inhibition assay, HCT116
# Type: cell-based, human
# reportedConditions: Homo sapiens, HCT-116, HCT116 cells
# Experimental: Proliferation inhibition was measured using a 72 hr ATP luminescence assay (Cheng et al., U.S. Pat. No. 8,394,922 B2 (2013)). The antiproliferative effects are reported as IC50's, i.e., the concentration of compound that produces a 50% inhibitory effect on cell proliferation.
resultType: IC50 (nM)
Return type: number; implicit unit nM.

                                   compound  resulttype  recordedmeasurement
0  COc1cc2c(cc1OCCCC(=O)Nc1cc(C(=O)Nc3ccc(-c4ccc(N)cc4)cc3)n(C)c1)N=C[C@@H]1Cc3ccccc3CN1C2=O [(Ib-54)]        IC50                0.007

Okay, next one:
Name the recorded IC50 for COc1cc2c(cc1OCCCC(=O)Nc1cc(C(=O)Nc3ccc(-n4cnc(C)n4)c(OC)c3)n(C)c1)N=C[C@@H]1Cc3ccccc3CN1C2=O [(Ib-13)] .
0.036

----------
# Tested on: mesothelioma (H226) cancer cell line
# protocolDescription: 72 hr ATP luminescence cell proliferation inhibition assay, H226
# Type: cell-based, human
# reportedConditions: H226 cells
# Experimental: Proliferation inhibition was measured using a 72 hr ATP luminescence assay (Cheng et al., U.S. Pat. No. 8,394,922 B2 (2013)). The antiproliferative effects are reported as IC50's, i.e., the concentration of compound that produces a 50% inhibitory effect on cell proliferation.
Recorded log10 IC50 values for a group of compounds are listed next.
Scale: log10; quantity: IC50; unit before log: nM

Solved entries (count: 4):
>>> print(df.to_string())
                                   compound  recordedmeasurement
0  COc1cc2c(cc1OCCCC(=O)Nc1cccc(C(=O)Nc3ccccc3)c1)N=C[C@@H]1Cc3ccccc3CN1C2=O                 0.97
1  COc1cc2c(cc1OCCCC(=O)Nc1cc(C(=O)Nc3ccc4c(c3)-n3cnnc3CO4)n(C)c1)N=C[C@@H]1Cc3ccccc3CN1C2=O                 0.49
2  COC(=O)c1cc(-c2ccc(NC(=O)c3nc(NC(=O)CCCOc4cc5c(cc4OC)C(=O)N4Cc6ccccc6C[C@H]4C=N5)cn3C)cc2)cn1C                -1.74
3  C=CCOc1cc(NC(=O)c2cc(NC(=O)CCCOc3cc4c(cc3OC)C(=O)N3Cc5ccccc5C[C@H]3C=N4)cn2C)ccc1-n1cnc(C)n1                -1.17

Name the recorded log10 IC50 for "COc1cc2c(cc1OCCCC(=O)Nc1cc(C(=O)Nc3ccc(Cl)nc3)n(C)c1)N=C[C@@H]1Cc3ccccc3CN1C2=O" .
-0.89

And for "COc1cc2c(cc1OCCCC(=O)Nc1ccc(C(=O)Nc3ccccc3)cc1)N=C[C@@H]1Cc3ccccc3CN1C2=O" ?
0.08

And for "COc1cc2c(cc1OCCCC(=O)Nc1cc(C(=O)Nc3ccc(-n4cnc(C)n4)c(OC(F)F)c3)n(C)c1)N=C[C@@H]1Cc3ccccc3CN1C2=O" ?
-1.23

----------
# System: mesothelioma (H226) cancer cell line
# protocolDescription: 72 hr ATP luminescence cell proliferation inhibition assay, H226
# Assay type: cell-based, human
# reportedConditions: H226 cells
Consider the cut-off 0.2 nM. If the recorded IC50 is strictly smaller, the label is label 1; if not, the label is label 0.

Before answering, review these 2 worked examples.
>>> print(df.to_string())
                                   compound                    targetortestsystem  assignedclass
0  COc1cc2c(cc1OCCCC(=O)Nc1cc(C(=O)Nc3ccc(-n4ccnc4)cc3)n(C)c1)N=C[C@@H]1Cc3ccccc3CN1C2=O [(Ib-22)]  mesothelioma (H226) cancer cell line        label 1
1  COc1cc2c(cc1OCCCC(=O)Nc1ncc(C(=O)Nc3ccccc3)s1)N=C[C@@H]1Cc3ccccc3CN1C2=O [(Ib-04)]  mesothelioma (H226) cancer cell line        label 0

Kindly consider the entry below.
Field: below-cutoff. Rule: recorded IC50 strictly less than 0.2 nM. Subject: COc1cc2c(cc1OCCCC(=O)Nc1cc(C(=O)Nc3ccc(-n4cnc(C)n4)c(C(F)F)c3)n(C)c1)N=C[C@@H]1Cc3ccccc3CN1C2=O [(Ib-09)]
label 1

----------
# Tested on: mesothelioma (H226) cancer cell line
# protocolDescription: 72 hr ATP luminescence cell proliferation inhibition assay, H226
# Format: cell-based, human
# reportedConditions: H226 cells
Consider the cut-off 0.1 nM. If the recorded IC50 is strictly smaller, the label is true (1); if not, the label is false (0).

Before answering, review these 3 worked examples.
In [3]: df
Out[3]:
                                   compound  assignedclass
0  COc1cc2c(cc1OCCCC(=O)Nc1cc(C(=O)Nc3cnn(-c4ccccc4)c3)n(C)c1)N=C[C@@H]1Cc3ccccc3CN1C2=O [(Ib-24)]       true (1)
1  COc1cc2c(cc1OCCCC(=O)Nc1cc(C(=O)Nc3ccc(-c4cc(-c5ncco5)n(C)c4)cc3)n(C)c1)N=C[C@@H]1Cc3ccccc3CN1C2=O [(Ib-49)]       true (1)
2  COC(=O)c1nc(-c2ccc(NC(=O)c3cc(NC(=O)CCCOc4cc5c(cc4OC)C(=O)N4Cc6ccccc6C[C@H]4C=N5)cn3C)cc2)cn1C [(Ib-25)]      false (0)

Kindly consider the entry below.
Field: below-cutoff. Rule: recorded IC50 strictly less than 0.1 nM. Subject: COc1cc2c(cc1OCCCC(=O)Nc1cc(C(=O)Nc3ccc(-n4cnc(C)n4)c(OCC(F)F)c3)n(C)c1)N=C[C@@H]1Cc3ccccc3CN1C2=O [(Ib-11)]
false (0)

----------
Recorded IC50 values for a group of compounds are listed next.
# Tested on: mesothelioma (H226) cancer cell line
# protocolDescription: 72 hr ATP luminescence cell proliferation inhibition assay, H226
# Format: cell-based, human
# reportedConditions: H226 cells
Return type: number; implicit unit nM.

Solved entries (count: 2):
>>> df
                                   compound  recordedmeasurement
0  COc1cc2c(cc1OCCCC(=O)Nc1cc(C(=O)NC3CC3)n(C)c1)N=C[C@@H]1Cc3ccccc3CN1C2=O [(Ib-42)]                 0.49
1  COc1cc2c(cc1OCCCC(=O)Nc1cc(C(=O)Nc3ccc(-n4cnc(Cl)c4)c(F)c3)n(C)c1)N=C[C@@H]1Cc3ccccc3CN1C2=O [(Ib-20)]                0.031

Name the recorded IC50 for COc1cc2c(cc1OCCCC(=O)Nc1cc(C(=O)Nc3cnc4c(c3)ncn4C)n(C)c1)N=C[C@@H]1Cc3ccccc3CN1C2=O [(Ib-37)] .
1.2

----------
# Test system: mesothelioma (H226) cancer cell line
# protocolDescription: 72 hr ATP luminescence cell proliferation inhibition assay, H226
# Assay type: cell-based, human
# reportedConditions: H226 cells
resultType: IC50

>>> print(df.to_string())
                                   compound                    targetortestsystem  recordedmeasurement
0  COc1cc2c(cc1OCCCC(=O)Nc1cc(C(=O)Nc3ccc(-n4cnc(C)n4)c(O)c3)n(C)c1)N=C[C@@H]1Cc3ccccc3CN1C2=O  mesothelioma (H226) cancer cell line           < 0.004 nM
1  COc1cc2c(cc1OCCCC(=O)Nc1cc(C(=O)Nc3ccc(-n4cncn4)cc3)n(C)c1)N=C[C@@H]1Cc3ccccc3CN1C2=O  mesothelioma (H226) cancer cell line           < 0.004 nM
2  COc1cc2c(cc1OCCCC(=O)Nc1cc(C(=O)Nc3ccc(-n4cnc(C)n4)cc3)n(C)c1)N=C[C@@H]1Cc3ccccc3CN1C2=O  mesothelioma (H226) cancer cell line           < 0.004 nM

Name the recorded IC50 for "COc1cc2c(cc1OCCCC(=O)Nc1ccccc1C(=O)Nc1ccccc1)N=C[C@@H]1Cc3ccccc3CN1C2=O" .
< 250 nM
